System: IGROV1 ovarian
measurement_notes: NCI-60 one-dose screen, 48 h (100 = growth as untreated, 0 = no growth, -100 = all killed)
conditions_used: 10 µM unless noted
The panel holds about 83,000 compounds, 20% with a hit somewhere; the sample as a whole holds those more often.
measured_attribute: growth (%)
Quick reminder: number only, in %, skip the unit.

# compound, measured_attribute, unit_tag, measured_number
records = [
    ("COc1ccccc1N1CCN(CCCOc2ccc(C(=O)/C=C3/C(=O)Nc4ccccc43)cc2)CC1", "growth", "%", 67.7),
]

Quick one: growth of C#C[C@@]1(O)[C@@H](CO)O[C@@H](n2cc(Cl)c3c(N)ccnc32)[C@@H]1O ?
88.3

Look up growth: C=CCn1c(SCC(=O)Nc2ccc(C(=O)/C=C/c3cc(OC)c(OC)c(OC)c3)cc2)nnc1-c1ccccc1
86.9

Can you look up the measured growth of Cc1cc(Nc2nc(SCc3ccc(C(=O)Nc4ccc(F)cc4N)cc3)nn3cccc23)n[nH]1 for me?
33.6

Look up growth for this compound: COc1cc2c(cc1OC)C(Sc1ccc(Cl)cc1)c1c(nc(N)c(C#N)c1N)O2 (centres undefined)
-25.5

----------
System: NCI-H226 lung
measurement_notes: NCI-60 one-dose screen, 48 h (100 = growth as untreated, 0 = no growth, -100 = all killed)
conditions_used: 10 µM unless noted
This is part of a sample that, as a whole, favours compounds with a hit. Of some 83,000 tested, about 20% had one in any assay.
In this section we review reported growth values for a set of compounds.
Hi! Could you send only the number? It should be in %, unit omitted.

Solved entries:
# compound, tgt, measured_attribute, unit_tag, measured_number
records = [
    ("Nc1c(C(=O)Nc2ccccn2)sc2nc3c(cc12)CCCC3", "NCI-H226 lung", "growth", "%", 82.8),
    ("FC(F)(F)c1ccc2c(Nc3cccc(C4CC(c5ccccc5)=NN4c4ccc(Cl)cc4)c3)ccnc2c1 (configuration not stated)", "NCI-H226 lung", "growth", "%", 68.1),
    ("O=C(CN1N=C(c2ccc(F)cc2)CCC1=O)Nc1nccs1", "NCI-H226 lung", "growth", "%", 110),
    ("N#Cc1nc(-c2ccccc2)oc1S(=O)(=O)NCC(c1ccc(Cl)cc1)N1CCCCC1 (configuration not stated)", "NCI-H226 lung", "growth", "%", 117),
    ("COc1ccc2nc3c(n2c1)C(=O)C(=O)c1ccccc1-3", "NCI-H226 lung", "growth", "%", 14.9),
    ("O=C1CCc2ccccc2N1", "NCI-H226 lung", "growth", "%", 104),
]

Quick one: growth of C=CCn1c(CN2CCN(c3cc4c(cc3F)c(=O)c(C(=O)O)cn4C3CC3)CC2)n[nH]c1=S ?
110

Tell me the measured growth of O=C(Nc1nccs1)c1noc2ccccc12 , please.
92.7

Endpoint output: growth of CCO/C=N/S(=O)(=O)c1cc2c(cc1Cl)NC=NS2(=O)=O . Value?
98.7

Which measured growth value corresponds to COc1cccc2c1-c1ccccc1C2=O ?
84.1

Suppose we examine the compound CC(=O)Nc1ccc2c(c1)Cc1cc(F)ccc1-2 ; what growth value has been reported?
99.2

# query: growth of entry Cc1c(Cl)cccc1NC(=O)c1sc2nc3c(cc2c1N)CCCCC3
71.6
